Form field: pIC50 (one value per entry).
Molecular target: human ROR1 (Homo sapiens)
Construct: host or cells: HEK 293T cells, Tet-on system induced with doxycycline
Sequence (Q01973 30-937): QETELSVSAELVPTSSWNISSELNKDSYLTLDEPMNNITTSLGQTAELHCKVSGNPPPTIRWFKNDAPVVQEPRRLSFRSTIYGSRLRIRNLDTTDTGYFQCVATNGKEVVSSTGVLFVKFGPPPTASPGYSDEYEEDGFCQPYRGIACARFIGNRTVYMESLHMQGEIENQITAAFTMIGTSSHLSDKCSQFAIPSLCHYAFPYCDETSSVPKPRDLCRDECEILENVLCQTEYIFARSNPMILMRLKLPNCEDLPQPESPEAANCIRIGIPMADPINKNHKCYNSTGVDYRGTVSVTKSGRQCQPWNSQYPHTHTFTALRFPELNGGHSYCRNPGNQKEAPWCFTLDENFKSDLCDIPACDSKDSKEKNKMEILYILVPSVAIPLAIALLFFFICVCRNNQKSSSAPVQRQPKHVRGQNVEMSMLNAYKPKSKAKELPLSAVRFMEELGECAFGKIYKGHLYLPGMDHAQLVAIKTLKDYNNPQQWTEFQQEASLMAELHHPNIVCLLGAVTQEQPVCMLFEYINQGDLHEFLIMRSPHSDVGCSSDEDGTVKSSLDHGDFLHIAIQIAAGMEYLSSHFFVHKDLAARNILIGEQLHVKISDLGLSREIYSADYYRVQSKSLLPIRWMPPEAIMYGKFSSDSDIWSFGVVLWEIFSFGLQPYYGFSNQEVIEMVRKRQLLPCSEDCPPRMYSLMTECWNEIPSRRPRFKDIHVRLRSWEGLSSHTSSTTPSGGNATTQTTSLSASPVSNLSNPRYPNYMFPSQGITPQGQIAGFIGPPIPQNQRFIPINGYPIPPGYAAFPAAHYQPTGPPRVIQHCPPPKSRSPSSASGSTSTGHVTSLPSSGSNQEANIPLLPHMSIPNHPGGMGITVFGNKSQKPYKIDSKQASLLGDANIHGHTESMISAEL
Experiment: ROR1 high content cell-based binding assay
Details: read-out: ROR1 Binding 293T Human HC Cell Based Assay IC50
Positions of bridges follow the written chain, without caps; N, C: chain ends. Non-standard residues stand in square brackets, D forms with d. Residues, ends and D or L forms follow the SMILES beside them. NMeF = CN[C@@H](Cc1ccccc1)C(=O)O
Reminder that pIC50 is minus the log10 of a molar concentration.

Prompt: I'm curious: which pIC50 was measured for CC(C)C[C@@H]1NC(=O)[C@H](Cc2ccc(O)cc2)NC(=O)[C@H](Cc2ccccc2)NC(=O)CSC[C@@H](C(=O)NCC(N)=O)NC(=O)[C@H](CC(C)C)NC(=O)[C@H](Cc2ccccc2)N(C)C(=O)[C@H](Cc2ccc(O)cc2)NC(=O)[C@H](Cc2c[nH]c3ccccc23)NC(=O)CNC(=O)[C@H](Cc2c[nH]c3ccccc23)NC(=O)[C@H](CCCNC(=N)N)NC(=O)[C@H](C(C)C)NC1=O [Example 1054] ({CH2CO}-FYLVRWGWY[NMeF]LCG-NH2; thioether N-12) tested on human ROR1 (Homo sapiens)?
Completion: 7.46

Prompt: I'm curious: which pIC50 was measured for CC(C)C[C@@H]1NC(=O)[C@H](Cc2ccc(O)cc2)NC(=O)[C@H](Cc2ccccc2)NC(=O)CSC[C@@H](C(=O)NCC(N)=O)NC(=O)[C@H](CC(C)C)NC(=O)[C@H](Cc2ccccc2)N(C)C(=O)[C@H](C)NC(=O)[C@H](Cc2c[nH]c3ccccc23)NC(=O)CNC(=O)[C@H](CO)NC(=O)[C@H](Cc2ccc(O)cc2)NC(=O)[C@H](C(C)C)NC1=O [Example 1039] ({CH2CO}-FYLVYSGWA[NMeF]LCG-NH2; thioether N-12) tested on human ROR1 (Homo sapiens)?
Completion: 6.17

Prompt: I'm curious: which pIC50 was measured for CC(C)C[C@@H]1NC(=O)[C@H](CC(N)=O)NC(=O)[C@H](Cc2ccccc2)N(C)C(=O)CNC(=O)[C@H](Cc2ccc(O)cc2)NC(=O)[C@H](Cc2ccccc2)NC(=O)CSC[C@@H](C(=O)NCC(N)=O)NC(=O)[C@H](Cc2c[nH]c3ccccc23)NC(=O)[C@H](Cc2ccc(O)cc2)NC1=O [Example 1100] ({CH2CO}-FYG[NMeF]NLYWCG-NH2; thioether N-9) tested on human ROR1 (Homo sapiens)?
Completion: 6.92
